Source: ChEMBL document CHEMBL1201862

- Tested on: SF-268
- EXPERIMENT_SUMMARY: NCI tumour cell line growth inhibition, 48 h
Activity calls are given as the source filed them. Cut-off read from the data, not from the text of the source: active = GI50 up to about 1.1 µM and inactive = higher.
Classes used: active, inactive

>>> class("COC(=NCCC1=CCCCC1)OC")
"inactive"
>>> class("O=c1c2cccnc2ncn1CCN1CCCCC1")
"inactive"
>>> class("ClC(Cl)(Cl)C(N1CCN(c2ccccc2)CC1)N1CCN(c2ccccc2)CC1")
"inactive"
>>> class("Cc1cccc(NC2=NCCO2)c1Cl")
"inactive"
>>> class("O=C1CCCCCCCCCCC1CN(Cc1ccccc1)Cc1ccccc1 (configuration not stated)")
"inactive"
>>> class("Cc1ccc(S(=O)(=O)NCCCSCCSCCCN)cc1")
"inactive"
>>> class("S=c1sscc1N1CCSc2ssc(=S)c21")
"inactive"
>>> class("c1ccc(Cn2c(-c3ccc(-c4ccccc4)cc3)cc3ccccc32)cc1")
"inactive"
>>> class("O=C1C(=C(C(F)(F)Cl)C(F)(F)Cl)C2CCC1C2 (configuration not stated)")
"inactive"
>>> class("O=C1C2CC=CCC2C(=O)N1n1c(Cc2ccc(Cl)cc2)n[nH]c1=O (configuration not stated)")
"inactive"
>>> class("COC(=O)C(=O)C(C(=O)C=C(C)C)C(=O)C(=O)Nc1cccc(C(C)=O)c1 (configuration not stated)")
"inactive"
>>> class("CN(C)c1ccc(/N=C2/C=CC(=C(C#N)C#N)c3ccccc32)cc1")
"active"
